- Target Desc: T1, CH2-4 constant domains of human IgE linked to a transmembrane protein, on 293 cells (human, UniProt P01854-1 104-428)
- T1 construct: domain: CH2-4 constant domains; also called human IgE-expressing 293 cells
- T1 sequence (P01854 other isoform, or with tags, fused parts or gaps): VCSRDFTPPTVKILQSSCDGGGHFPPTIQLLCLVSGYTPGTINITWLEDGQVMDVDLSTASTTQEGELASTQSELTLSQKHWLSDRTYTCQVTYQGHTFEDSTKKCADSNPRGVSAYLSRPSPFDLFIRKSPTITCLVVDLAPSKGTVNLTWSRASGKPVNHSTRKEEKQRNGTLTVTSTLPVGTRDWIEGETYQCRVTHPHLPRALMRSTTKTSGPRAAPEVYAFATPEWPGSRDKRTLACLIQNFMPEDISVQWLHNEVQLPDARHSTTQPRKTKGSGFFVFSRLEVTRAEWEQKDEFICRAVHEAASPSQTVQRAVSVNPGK
- Test Name: flow cytometry, 293 cells expressing human IgE CH2-4
Quantity: Bmax (MFI)

binder="hzB10v14-NNT (Fc fusion, monomeric) VHH-Fc: EVQLLESGGGEVQPGGSLRLSCVASGLTFSSYNMGWLRQAPGKEREFVGLSGSSSTSTYYADSVKGRFTISRDNSKNTVYLQMNSLKPEDTAVYYCAARRLLSTYWSDRSWDFWGQGTQVTVEPGGPSVFLFPPKPKDTLMISRTPEVTCVVVDVSHEDPEVKFNWYVDGVEVHNAKTKPREEQYNSTYRVVSVLTVLHQDWLNGKEYKCKVSNKALPAPIEKTISKAKGQPREPQVYTLPPSRDELTKNQVNLTCLVKGFYPSDIAVEWESNGQPENNYKTTPPVLDSDGSFFLNSTLTVDKSRWQQGNVFSCSVMHEALHNHYTQKSLSLSPGK" quantity=Bmax experimental_value=1.95e+06
binder="hzB10v17-NNT (Fc fusion, monomeric) VHH-Fc: EVQLLESGGGEVQPGGSLRLSCVASGLTFSSYNMGWLRQAPGKEREFVGLSGSSSTSTYYADAVKGRFTISRDNSKNTVYLQMNSLKPEDTAVYYCAARRLLSTYWSDRSWDFWGQGTQVTVEPGGPSVFLFPPKPKDTLMISRTPEVTCVVVDVSHEDPEVKFNWYVDGVEVHNAKTKPREEQYNSTYRVVSVLTVLHQDWLNGKEYKCKVSNKALPAPIEKTISKAKGQPREPQVYTLPPSRDELTKNQVNLTCLVKGFYPSDIAVEWESNGQPENNYKTTPPVLDSDGSFFLNSTLTVDKSRWQQGNVFSCSVMHEALHNHYTQKSLSLSPGK" quantity=Bmax experimental_value=2.07e+06
binder="hzB10v16-NNT (Fc fusion, monomeric) VHH-Fc: EVQLLESGGGEVQPGGSLRLSCVASGLTFSSYNMGWLRQAPGKEREFVGLSGSSSTSTYYAESVKGRFTISRDNSKNTVYLQMNSLKPEDTAVYYCAARRLLSTYWSDRSWDFWGQGTQVTVEPGGPSVFLFPPKPKDTLMISRTPEVTCVVVDVSHEDPEVKFNWYVDGVEVHNAKTKPREEQYNSTYRVVSVLTVLHQDWLNGKEYKCKVSNKALPAPIEKTISKAKGQPREPQVYTLPPSRDELTKNQVNLTCLVKGFYPSDIAVEWESNGQPENNYKTTPPVLDSDGSFFLNSTLTVDKSRWQQGNVFSCSVMHEALHNHYTQKSLSLSPGK" quantity=Bmax experimental_value=2.23e+06
binder="hzB10v20-NNT (Fc fusion, monomeric) VHH-Fc: EVQLLESGGGEVQPGGSLRLSCVASGLTFSSYNMGWLRQAPGKEREFVGLSGSSSTSTYYADSVKGRFTISRDNSKNTLYLQMNSLKPEDTAVYYCAARRLLSTYWSDRSWDFWGQGTQVTVEPGGPSVFLFPPKPKDTLMISRTPEVTCVVVDVSHEDPEVKFNWYVDGVEVHNAKTKPREEQYNSTYRVVSVLTVLHQDWLNGKEYKCKVSNKALPAPIEKTISKAKGQPREPQVYTLPPSRDELTKNQVNLTCLVKGFYPSDIAVEWESNGQPENNYKTTPPVLDSDGSFFLNSTLTVDKSRWQQGNVFSCSVMHEALHNHYTQKSLSLSPGK" quantity=Bmax experimental_value=2.24e+06
binder="hzB10v4-NNT (Fc fusion, monomeric) VHH-Fc: EVQLVQSGGELVQAGGSLRLSCVASGLTFSSYNMGWLRQAPGKEREFVGMSGSSSTSTYYAESVKGRFTISRDNAKNTLYLQMSSLRAEDTAVYYCAARRMLSTYWSDRSWDFWGQGTQVTVKPGGPSVFLFPPKPKDTLMISRTPEVTCVVVDVSHEDPEVKFNWYVDGVEVHNAKTKPREEQYNSTYRVVSVLTVLHQDWLNGKEYKCKVSNKALPAPIEKTISKAKGQPREPQVYTLPPSRDELTKNQVNLTCLVKGFYPSDIAVEWESNGQPENNYKTTPPVLDSDGSFFLNSTLTVDKSRWQQGNVFSCSVMHEALHNHYTQKSLSLSPGK" quantity=Bmax experimental_value=3.89e+06
binder="hzB10v7-NNT (Fc fusion, monomeric) VHH-Fc: EVQLVQSGGELVQAGGSLRLSCVASGLTFSSYNMGWLRQAPGKEREFVGLSGSSSTSTYYADSVKGRFTISRDNSKNTVYLQMNSLKPEDTAVYYCAARRMLSTYWSDRSWDFWGQGTQVTVKPGGPSVFLFPPKPKDTLMISRTPEVTCVVVDVSHEDPEVKFNWYVDGVEVHNAKTKPREEQYNSTYRVVSVLTVLHQDWLNGKEYKCKVSNKALPAPIEKTISKAKGQPREPQVYTLPPSRDELTKNQVNLTCLVKGFYPSDIAVEWESNGQPENNYKTTPPVLDSDGSFFLNSTLTVDKSRWQQGNVFSCSVMHEALHNHYTQKSLSLSPGK" quantity=Bmax experimental_value=3.34e+06
binder="hzB10v2-NNT (Fc fusion, monomeric) VHH-Fc: EVQLVQSGGELVQAGGSLRLSCVASGLTFSSYNMGWVRQAPGKEREFVSMSGSSSTSTYYADSVKGRFTISRDNSKNTVYLQMNSLKPEDTAVYYCAARRMLSTYWSDRSWDFWGQGTQVTVKPGGPSVFLFPPKPKDTLMISRTPEVTCVVVDVSHEDPEVKFNWYVDGVEVHNAKTKPREEQYNSTYRVVSVLTVLHQDWLNGKEYKCKVSNKALPAPIEKTISKAKGQPREPQVYTLPPSRDELTKNQVNLTCLVKGFYPSDIAVEWESNGQPENNYKTTPPVLDSDGSFFLNSTLTVDKSRWQQGNVFSCSVMHEALHNHYTQKSLSLSPGK" quantity=Bmax experimental_value=2.46e+06
